# Test system: B-16 melanoma
# TEST_DESCRIPTION: Anti-tumor action to B-16 melanoma transplanted under skin of mice
# Assay type: in vivo, BDF1 female mice
# SETTINGS: Mus musculus, B16, 504 h; 250 mg/kg/day x 3, oral at 1st, 5th and 9th day; tumor weight at 21st day; read-out: Inhibition Ratio (%)
ENDPOINT_LABEL: inhibition in vivo at 250 mg/kg (%)
A number alone suffices; assume %.

Examples with answers:
CCCC[Si](C)(C)CCCSCCCNC(=O)n1cc(F)c(=O)[nH]c1=O [compound 10] : 88.5
CC(C)[Si](C)(C)CCSCCN [Example 2] : 23.8

Below: the item to evaluate.
Which inhibition in vivo at 250 mg/kg reading was recorded for the compound CC(C)[Si](C)(C)CCCSCCCNC(=O)n1cc(F)c(=O)[nH]c1=O [compound 8] ?
45.7

---

# System: B-16 melanoma
# TEST_DESCRIPTION: Anti-tumor action to B-16 melanoma transplanted under skin of mice
# Format: in vivo, BDF1 female mice
# SETTINGS: Mus musculus, B16, 504 h; 250 mg/kg/day x 3, oral at 1st, 5th and 9th day; tumor weight at 21st day; read-out: Inhibition Ratio (%)
// label = satisfied if inhibition in vivo at 250 mg/kg is not less than 40%, otherwise not satisfied

Study these solved cases before continuing.
C[Si](C)(CCCSCCCN)c1ccccc1 : not satisfied
CCCC[Si](C)(C)CCCSCCCN : satisfied
CC(C)(C)[Si](C)(C)CCCSCCCN : satisfied
CC(C)(C)[Si](C)(C)CCCSCCCNC(=O)n1cc(F)c(=O)[nH]c1=O : satisfied
CC(C)[Si](C)(C)CCSCCCNC(=O)n1cc(F)c(=O)[nH]c1=O : not satisfied
CC(C)(C)[Si](C)(C)CCCSCCN : satisfied
CC(C)[Si](C)(C)CCSCCCN : not satisfied
C[Si](C)(CCCSCCCNC(=O)n1cc(F)c(=O)[nH]c1=O)c1ccccc1 : satisfied
CC(C)[Si](C)(C)CCCSCCCN : satisfied

Now consider a different molecule.
Decide: is the reported value of inhibition in vivo at 250 mg/kg for "CC(C)(C)[Si](C)(C)CCCSCCNC(=O)n1cc(F)c(=O)[nH]c1=O" equal to or greater than 40%?
satisfied

---

# Tested on: B-16 melanoma
# TEST_DESCRIPTION: Anti-tumor action to B-16 melanoma transplanted under skin of mice
# Type: in vivo, BDF1 female mice
# SETTINGS: Mus musculus, B16, 504 h; 500 mg/kg/day x 3, oral at 1st, 5th and 9th day; tumor weight at 21st day; read-out: Inhibition Ratio (%)
# From the text: A cancer cell of B-16 melanoma (1 x 10^5 cells) was transplanted under skin of BDF1 female mice (age of about 5 weeks), and each of testing compounds was orally dosed at lst, 5th and 9th day after the transplantation. At 21st day after the transplantation, the mice were killed to measure a weight of the formed cancerous tumor and to finally determine an inhibition ratio due to the dosage of the test compound.
// label = t if inhibition in vivo at 500 mg/kg is not less than 50%, otherwise f

Study these solved cases before continuing.
CC(C)[Si](C)(C)CCSCCN [Example 2] : f
CC(C)[Si](C)(C)CCCSCCCN [Example 8] : f
CCCC[Si](C)(C)CCCSCCCN [Example 10] : f
C[Si](C)(CCCSCCCN)c1ccccc1 [Example 11] : f
CC(C)(C)[Si](C)(C)CCCSCCN [Example 7] : f

Now consider a different compound.
Decide: is the reported value of inhibition in vivo at 500 mg/kg for CC(C)(C)[Si](C)(C)CCCSCCCN [Example 9] equal to or greater than 50%?
t
